Attribution: paper PMC12257535

# tested.target: CB2 receptor (Homo sapiens, UniProt P34972)
# Sequence (P34972 whole entry): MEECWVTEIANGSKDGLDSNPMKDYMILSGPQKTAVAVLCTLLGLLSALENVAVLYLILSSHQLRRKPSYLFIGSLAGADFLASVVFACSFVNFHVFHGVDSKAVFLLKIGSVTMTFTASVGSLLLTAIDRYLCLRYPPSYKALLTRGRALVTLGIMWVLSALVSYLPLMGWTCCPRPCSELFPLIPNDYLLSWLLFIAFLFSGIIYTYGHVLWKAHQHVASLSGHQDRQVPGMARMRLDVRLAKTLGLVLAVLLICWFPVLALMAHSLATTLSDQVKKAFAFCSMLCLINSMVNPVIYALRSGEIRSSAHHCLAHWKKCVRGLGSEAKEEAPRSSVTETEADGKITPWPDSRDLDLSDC
# procedure.details: G protein nanoBRET assay, antagonist mode, CB2 receptor
# measurement.parameters: 50 μM after pretreatment with 1 μM CP-55940
observed.property: inhibition of CB2 receptor

> print(dat)
                                   compound                             tested.target     observed.result
1  CCCCCc1cc(O)c2c(c1)OC(C)(C)c1ccc(C)cc1-2 [CBN, Cannabinol]  CB2 receptor (Homo sapiens, UniProt P34972)  partial inhibition
2  CCCCCC1=CC(=O)C2=C(OC(C)(C)c3ccc(C)cc32)C1=O [CBN-quinone]  CB2 receptor (Homo sapiens, UniProt P34972)  partial inhibition
